target: recombinant human delta (DOR) opioid receptor (Homo sapiens (Human), UniProt P41143); assay: Opioid receptor radioligand binding assay, DOR; conditions: HEK293 cell membranes, 0.5 nM [3H]DADLE; read-out: DOR, IC50
Sequence (P41143 whole entry, looked up): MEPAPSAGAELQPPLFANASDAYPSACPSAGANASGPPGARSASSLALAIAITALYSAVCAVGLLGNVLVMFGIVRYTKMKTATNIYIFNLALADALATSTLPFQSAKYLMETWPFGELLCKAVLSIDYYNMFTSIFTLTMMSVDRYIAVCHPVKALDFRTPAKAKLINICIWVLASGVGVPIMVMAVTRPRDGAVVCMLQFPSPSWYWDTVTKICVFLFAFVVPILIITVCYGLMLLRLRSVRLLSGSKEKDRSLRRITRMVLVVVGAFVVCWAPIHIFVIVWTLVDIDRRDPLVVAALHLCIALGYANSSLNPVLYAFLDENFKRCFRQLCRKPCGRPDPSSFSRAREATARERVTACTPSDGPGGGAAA
pIC50: −log10 of the molar value.
Listed here: items and their measured pIC50.

Ask: Request - read-out pIC50 | tested on recombinant human delta (DOR) opioid receptor (Homo sapiens (Human), UniProt P41143) | compound `CC(C)C[C@@H](NC(=O)[C@@H](Cc1ccccc1)NC(=O)[C@H](N)Cc1ccccc1)C(=O)N[C@H](CCCCN)C(=O)N1CCC(NC(=O)C(=O)O)CC1`
Result: < 5.00

Ask: Request - read-out pIC50 | tested on recombinant human delta (DOR) opioid receptor (Homo sapiens (Human), UniProt P41143) | compound `CC(C)C[C@@H](NC(=O)[C@@H](Cc1ccccc1)NC(=O)[C@H](N)Cc1ccccc1)C(=O)N[C@H](CCCCN)C(=O)N1CCN(C(=O)N(C)C)CC1`
Result: < 5.00

Ask: Request - read-out pIC50 | tested on recombinant human delta (DOR) opioid receptor (Homo sapiens (Human), UniProt P41143) | compound `COC(=O)/C=C/C(=O)NC1CCN(C(=O)[C@@H](CCCCN)NC(=O)[C@@H](CC(C)C)NC(=O)[C@@H](Cc2ccccc2)NC(=O)[C@H](N)Cc2ccccc2)CC1`
Result: < 5.00

Ask: Request - read-out pIC50 | tested on recombinant human delta (DOR) opioid receptor (Homo sapiens (Human), UniProt P41143) | compound `CNC(=O)C(=O)NC1CCN(C(=O)[C@@H](CCCCN)NC(=O)[C@@H](CC(C)C)NC(=O)[C@@H](Cc2ccccc2)NC(=O)[C@H](N)Cc2ccccc2)CC1`
Result: < 5.00

Please look at the following compound next.
Ask: Request - read-out pIC50 | tested on recombinant human delta (DOR) opioid receptor (Homo sapiens (Human), UniProt P41143) | compound `CC(C)C[C@@H](NC(=O)[C@@H](Cc1ccccc1)NC(=O)[C@H](N)Cc1ccccc1)C(=O)N[C@H](CCCCN)C(=O)NCc1ccnc(C(=O)O)c1`
Result: < 5.00

----------
target: Opioid Kappa Receptor (recombinant human, HEK293 cells) (Homo sapiens (Human)); test: cell-based; conditions: read-out: EC50
TEST_READOUT: pEC50
On this scale, pEC50 is minus log10 of a concentration expressed in M (mol/L).

Worked examples follow.
Ask: Find the recorded pEC50 belonging to CC(C)C[C@@H](NC(=O)[C@@H](Cc1ccccc1)NC(=O)[C@H](N)Cc1ccccc1)C(=O)N[C@H](CCCCN)C(=O)N1CCN(C(=O)C(=O)NC2CC2)CC1 [Compound 13-23] and report it.
Result: 8.07

Ask: Find the recorded pEC50 belonging to CC(C)C[C@@H](NC(=O)[C@@H](Cc1ccccc1)NC(=O)[C@H](N)Cc1ccccc1)C(=O)N[C@H](CCCCN)C(=O)NC1CCN(C(=O)C(=O)N(C)C)CC1 [Compound 13-17] and report it.
Result: 7.66

Please look at the following compound next.
Ask: Find the recorded pEC50 belonging to CC(C)C[C@@H](NC(=O)[C@@H](Cc1ccccc1)NC(=O)[C@H](N)Cc1ccccc1)C(=O)N[C@H](CCCCN)C(=O)NCc1cccc(C(=O)O)n1 [Compound 13-6] and report it.
Result: 7.52

----------
Listed here: items and their measured pIC50.
molecular target: recombinant human mu (MOR) opioid receptor (Homo sapiens (Human)); experiment: Opioid receptor radioligand binding assay, MOR; conditions: HEK293 cell membranes, 0.5 nM [3H]DAMGO; read-out: MOR, IC50
pIC50: −log10 of the molar value.

Worked examples follow.
Ask: Find the recorded pIC50 belonging to `COCCOCCOCCNC(=O)[C@@H](CCCCN)NC(=O)[C@@H](CC(C)C)NC(=O)[C@@H](Cc1ccccc1)NC(=O)[C@H](N)Cc1ccccc1` and report it.
Result: < 5.00

Ask: Find the recorded pIC50 belonging to `COC(=O)/C=C/C(=O)N1CCC(NC(=O)[C@@H](CCCCN)NC(=O)[C@@H](CC(C)C)NC(=O)[C@@H](Cc2ccccc2)NC(=O)[C@H](N)Cc2ccccc2)CC1` and report it.
Result: < 5.00

Please look at the following compound next.
Ask: Find the recorded pIC50 belonging to `CC(C)C[C@@H](NC(=O)[C@@H](Cc1ccccc1)NC(=O)[C@H](N)Cc1ccccc1)C(=O)N[C@H](CCCCN)C(=O)N1CCN(C(=O)C(=O)N(C)C)CC1` and report it.
Result: < 5.00

----------
molecular target: recombinant human kappa (KOR) opioid receptor (Homo sapiens (Human)); test: biochemical; assay type: binding; conditions: HEK293 cell membranes, 0.5 nM [3H]diprenorphine
Square brackets hold non-standard residues; d marks the D form. Peptide text beside a SMILES is read from it. * marks the point of attachment. Pyrrolidinyl(3-NH2,3-CO2Me) = COC(=O)C1(N)CCN(*)C1; dAla(cPr) = N[C@H](CC1CC1)C(=O)O
TEST_READOUT: pIC50
On this scale, pIC50 is minus log10 of a concentration expressed in M (mol/L).

Worked examples follow.
Ask: Find the recorded pIC50 belonging to CC(C)C[C@@H](NC(=O)[C@@H](Cc1ccccc1)NC(=O)[C@H](N)Cc1ccccc1)C(=O)N[C@H](CCCCN)C(=O)NCc1ccncc1O [Compound 13-11] and report it.
Result: 9.04

Ask: Find the recorded pIC50 belonging to COC(=O)C1(N)CCN(C(=O)[C@@H](CCCNC(=N)N)NC(=O)[C@@H](CC2CC2)NC(=O)[C@@H](Cc2ccccc2)NC(=O)[C@H](N)Cc2ccccc2)C1 (stereo partly shown) [Compound 133] (H-[dF][dF][dAla(cPr)][dR]-{Pyrrolidinyl(3-NH2,3-CO2Me)}) and report it.
Result: 8.89

Ask: Find the recorded pIC50 belonging to CC(C)C[C@@H](NC(=O)[C@@H](Cc1ccccc1)NC(=O)[C@H](N)Cc1ccccc1)C(=O)N[C@H](CCCCN)C(=O)NCCOCCOCCO [Compound 13-52] and report it.
Result: 8.99

Please look at the following compound next.
Ask: Find the recorded pIC50 belonging to CNCCOC(=O)C1(N)CCN(C(=O)[C@@H](CCCCN)NC(=O)[C@@H](CC(C)C)NC(=O)[C@@H](Cc2ccccc2)NC(=O)[C@H](N)Cc2ccccc2)C1 (stereo partly shown) [Compound 60] and report it.
Result: 9.03

----------
molecular target: Opioid Kappa Receptor (recombinant human, HEK293 cells) (Homo sapiens (Human)); assay: cell-based; conditions: read-out: EC50
Square brackets hold non-standard residues; d marks the D form. Peptide text beside a SMILES is read from it. * marks the point of attachment. Piperidin1yl(4-NH2,4-CO2Me) = COC(=O)C1(N)CCN(*)CC1
TEST_READOUT: pEC50
On this scale, pEC50 is minus log10 of a concentration expressed in M (mol/L).

Worked examples follow.
Ask: Find the recorded pEC50 belonging to CC(C)C[C@@H](NC(=O)[C@@H](Cc1ccccc1)NC(=O)[C@H](N)Cc1ccccc1)C(=O)N[C@H](CCCCN)C(=O)N1CCC(O)(CO)CC1 [Compound 13-65] and report it.
Result: 8.77

Ask: Find the recorded pEC50 belonging to COC(=O)C1(N)CCN(C(=O)CNC(=O)[C@@H](CCCCN)NC(=O)[C@@H](CC(C)C)NC(=O)[C@@H](Cc2ccccc2)NC(=O)[C@H](N)Cc2ccccc2)CC1 [Compound 66] (H-[dF][dF][dL][dK]G-{Piperidin1yl(4-NH2,4-CO2Me)}) and report it.
Result: 7.89

Ask: Find the recorded pEC50 belonging to COCCNC(=O)[C@@H](CCCCN)NC(=O)[C@@H](CC(C)C)NC(=O)[C@@H](Cc1ccccc1)NC(=O)[C@H](N)Cc1ccccc1 [Compound 13-2] and report it.
Result: 8.08

Next:
Ask: Find the recorded pEC50 belonging to CC(C)C[C@@H](NC(=O)[C@@H](Cc1ccccc1)NC(=O)[C@H](N)Cc1ccccc1)C(=O)N[C@H](CCCCN)C(=O)NCc1ccc2c(c1)OCO2 [Compound 13-1] and report it.
Result: 7.37

Ask: Find the recorded pEC50 belonging to COCCOC(=O)C1(N)CCN(C(=O)[C@@H](CCCCN)NC(=O)[C@@H](CC(C)C)NC(=O)[C@@H](Cc2ccccc2)NC(=O)[C@H](N)Cc2ccccc2)C1 (some centres unmarked) [Compound 45] and report it.
Result: 7.52

----------
Listed here: items and their measured pIC50.
biological target: recombinant human mu (MOR) opioid receptor (Homo sapiens (Human)); assay: Opioid receptor radioligand binding assay, MOR; conditions: HEK293 cell membranes, 0.5 nM [3H]DAMGO; read-out: MOR, IC50
pIC50: −log10 of the molar value. Square brackets hold non-standard residues; d marks the D form. Peptide text beside a SMILES is read from it. * marks the point of attachment. Pyrrolidinyl(3-NH2,3-CO2Me) = COC(=O)C1(N)CCN(*)C1; Tic = O=C(O)[C@@H]1Cc2ccccc2CN1

Worked examples follow.
Ask: Find the recorded pIC50 belonging to COC(=O)C1(N)CCN(C(=O)[C@@H](CCCCN)NC(=O)[C@@H](CC(C)C)NC(=O)[C@@H]2Cc3ccccc3CN2C(=O)[C@H](N)Cc2ccccc2)C1 (stereo partly drawn) [Compound 146] (H-[dF][Tic][dL][dK]-{Pyrrolidinyl(3-NH2,3-CO2Me)}) and report it.
Result: < 5.00

Ask: Find the recorded pIC50 belonging to `CC(C)C[C@@H](NC(=O)[C@@H](Cc1ccccc1)NC(=O)[C@H](N)Cc1ccccc1)C(=O)N[C@H](CCCCN)C(=O)N1CCNC(=O)C1` and report it.
Result: < 5.00

Ask: Find the recorded pIC50 belonging to CCOC(=O)C(N)C(=O)NC1CCN(C(=O)[C@@H](CCCCN)NC(=O)[C@@H](CC(C)C)NC(=O)[C@@H](Cc2ccccc2)NC(=O)[C@H](N)Cc2ccccc2)CC1 (stereo partly drawn) and report it.
Result: < 5.00

Ask: Find the recorded pIC50 belonging to `CC(C)C[C@@H](NC(=O)[C@@H](Cc1ccccc1)NC(=O)[C@H](N)Cc1ccccc1)C(=O)N[C@H](CCCCN)C(=O)NCc1ccnc(C(=O)O)c1` and report it.
Result: < 5.00

Ask: Find the recorded pIC50 belonging to `CC(C)C[C@@H](NC(=O)[C@@H](Cc1ccccc1)NC(=O)[C@H](N)Cc1ccccc1)C(=O)N[C@H](CCCCN)C(=O)N1CCC(NC(=O)C(=O)NC2CC2)CC1` and report it.
Result: < 5.00

Next:
Ask: Find the recorded pIC50 belonging to `CC(C)C[C@@H](NC(=O)[C@@H](Cc1ccccc1)NC(=O)[C@H](N)Cc1ccccc1)C(=O)N[C@H](CCCCN)C(=O)NCCOCCOCCO` and report it.
Result: < 5.00
